# ASSAY_PROCEDURE: Half life in mouse plasma at 1 mM by LC/MS analysis
# Format: ADME, cell-free
QUANTITY: half-life (min)
Just the number please, in min, no unit attached.

# annotated cases, reported half-life shown
- COMPOUND_STRUCTURE_STRING: "O=C1/C(=C/c2ccc([N+](=O)[O-])cc2)CNC/C1=C\\c1ccc([N+](=O)[O-])cc1"
  half-life, min: 22.5
- COMPOUND_STRUCTURE_STRING: "O=C1/C(=C/c2ccccc2)CNC/C1=C\\c1ccccc1"
  half-life, min: 19.5

Qu. For the molecule "Cc1ccc(/C=C2\CNC/C(=C\c3ccc(C)cc3)C2=O)cc1" , give its measured half-life value.
Ans. 14.6

====

# System: Plasmodium berghei
# ASSAY_PROCEDURE: Antimalarial activity against liver stage Plasmodium berghei ANKA sporozoites infected in human HepG2 cells after 48 hrs by luciferase reporter gene assay
# Assay type: functional, organism-based
# TEST_PARAMETERS: HepG2, 48 h
Threshold-based label: IC50 under 0.3 µg/mL gives Met, IC50 not under 0.3 µg/mL gives Not met.

Here's what some known entries look like.
- COMPOUND: "CCN(CC)CCOc1ccc(C(=O)N2C/C(=C\\c3ccc(C)cc3)C(=O)/C(=C/c3ccc(C)cc3)C2)cc1.Cl"
  ASSAY_TARGET: "Plasmodium berghei"
  LABEL: "Not met"
- COMPOUND: "Cl.O=C1/C(=C/c2ccc([N+](=O)[O-])cc2)CN(C(=O)c2ccc(OCCN3CCCCC3)cc2)C/C1=C\\c1ccc([N+](=O)[O-])cc1"
  ASSAY_TARGET: "Plasmodium berghei"
  LABEL: "Met"
- COMPOUND: "O=C1/C(=C/c2ccc([N+](=O)[O-])cc2)CNC/C1=C\\c1ccc([N+](=O)[O-])cc1"
  ASSAY_TARGET: "Plasmodium berghei"
  LABEL: "Not met"
- COMPOUND: "Cc1ccc(/C=C2\\CNC/C(=C\\c3ccc(C)cc3)C2=O)cc1"
  ASSAY_TARGET: "Plasmodium berghei"
  LABEL: "Met"
- COMPOUND: "Cc1ccc(/C=C2\\CN(C(=O)c3ccc(OCCN(C)C)cc3)C/C(=C\\c3ccc(C)cc3)C2=O)cc1.Cl"
  ASSAY_TARGET: "Plasmodium berghei"
  LABEL: "Not met"
- COMPOUND: "Cl.O=C1/C(=C/c2ccc([N+](=O)[O-])cc2)CN(C(=O)c2ccc(OCCN3CCOCC3)cc2)C/C1=C\\c1ccc([N+](=O)[O-])cc1"
  ASSAY_TARGET: "Plasmodium berghei"
  LABEL: "Not met"
- COMPOUND: "O[C@@H](c1cc(C(F)(F)F)nc2c(C(F)(F)F)cccc12)[C@H]1CCCCN1 (relative stereo) [(S,R)-MEFLOQUINE]"
  ASSAY_TARGET: "Plasmodium berghei"
  LABEL: "Not met"
- COMPOUND: "O=C1/C(=C/c2ccc(Cl)cc2)CNC/C1=C\\c1ccc(Cl)cc1"
  ASSAY_TARGET: "Plasmodium berghei"
  LABEL: "Not met"

Qu. For CCN(CC)CCCC(C)Nc1ccnc2cc(Cl)ccc12.O=P(O)(O)O.O=P(O)(O)O (stereo not drawn) [CHLOROQUINE PHOSPHATE] , is the recorded IC50 below the cut-off of 0.3 µg/mL?
Ans. Not met

Qu. Report whether reported IC50 is lower than 0.3 µg/mL (strictly) for "CCN(CC)CCOc1ccc(C(=O)N2C/C(=C\c3ccccc3)C(=O)/C(=C/c3ccccc3)C2)cc1.Cl"
Ans. Not met

====

# ASSAY_PROCEDURE: Half life in human plasma at 1 mM by LC/MS analysis
# Format: ADME, cell-free
QUANTITY: half-life

Guide cases for half-life, answers given:
- MOLECULE: "Cc1ccc(/C=C2\\CNC/C(=C\\c3ccc(C)cc3)C2=O)cc1"
  VALUE_MEASURED: "17.2 min"
- MOLECULE: "O[C@@H](c1cc(C(F)(F)F)nc2c(C(F)(F)F)cccc12)[C@H]1CCCCN1 (relative stereo) [(S,R)-MEFLOQUINE]"
  VALUE_MEASURED: "> 60 min"
- MOLECULE: "CCN(CC)CCCC(C)Nc1ccnc2cc(Cl)ccc12 (stereo unspecified)"
  VALUE_MEASURED: "> 60 min"
- MOLECULE: "O=C1/C(=C/c2ccccc2)CNC/C1=C\\c1ccccc1"
  VALUE_MEASURED: "11.8 min"
- MOLECULE: "O=C1/C(=C/c2ccc([N+](=O)[O-])cc2)CNC/C1=C\\c1ccc([N+](=O)[O-])cc1"
  VALUE_MEASURED: "> 60 min"

Now for a further molecule.
Qu. Assign half-life to the following record: "O=C1/C(=C/c2ccc(Cl)cc2)CNC/C1=C\c1ccc(Cl)cc1"
Ans. > 60 min

====

# ASSAY_PROCEDURE: Half life in mouse plasma at 1 mM by LC/MS analysis
# Type: ADME, cell-free
QUANTITY: half-life

- COMPOUND: "O=C1/C(=C/c2ccc(Cl)cc2)CNC/C1=C\\c1ccc(Cl)cc1"
  VALUE_MEASURED: "> 1 h"
- COMPOUND: "O[C@@H](c1cc(C(F)(F)F)nc2c(C(F)(F)F)cccc12)[C@H]1CCCCN1 (relative stereo) [(S,R)-MEFLOQUINE]"
  VALUE_MEASURED: "> 1 h"

Qu. Input CCN(CC)CCCC(C)Nc1ccnc2cc(Cl)ccc12 (stereo not drawn) , output reported half-life.
Ans. > 1 h

====

# System: Plasmodium berghei
# ASSAY_PROCEDURE: Antimalarial activity against liver stage Plasmodium berghei ANKA sporozoites infected in human HepG2 cells after 48 hrs by luciferase reporter gene assay
# Assay type: functional, organism-based
# TEST_PARAMETERS: HepG2, 48 h
QUANTITY: IC50
Answer by giving the amount and then stating its unit.

- COMPOUND_STRUCTURE_STRING: "CCN(CC)CCOc1ccc(C(=O)N2C/C(=C\\c3ccc([N+](=O)[O-])cc3)C(=O)/C(=C/c3ccc([N+](=O)[O-])cc3)C2)cc1.Cl"
  IC50: "0.186 µg/mL"

Qu. Annotate the compound "CN(C)CCOc1ccc(C(=O)N2C/C(=C\c3ccc([N+](=O)[O-])cc3)C(=O)/C(=C/c3ccc([N+](=O)[O-])cc3)C2)cc1.Cl" with its measured IC50.
Ans. 0.31 µg/mL

Qu. Determine from records and report IC50 for "O=C1/C(=C/c2ccccc2)CNC/C1=C\c1ccccc1"
Ans. 0.0935 µg/mL
